Attribution: patent US9630947B2

Recorded IC50, one value per entry.
Target sequence: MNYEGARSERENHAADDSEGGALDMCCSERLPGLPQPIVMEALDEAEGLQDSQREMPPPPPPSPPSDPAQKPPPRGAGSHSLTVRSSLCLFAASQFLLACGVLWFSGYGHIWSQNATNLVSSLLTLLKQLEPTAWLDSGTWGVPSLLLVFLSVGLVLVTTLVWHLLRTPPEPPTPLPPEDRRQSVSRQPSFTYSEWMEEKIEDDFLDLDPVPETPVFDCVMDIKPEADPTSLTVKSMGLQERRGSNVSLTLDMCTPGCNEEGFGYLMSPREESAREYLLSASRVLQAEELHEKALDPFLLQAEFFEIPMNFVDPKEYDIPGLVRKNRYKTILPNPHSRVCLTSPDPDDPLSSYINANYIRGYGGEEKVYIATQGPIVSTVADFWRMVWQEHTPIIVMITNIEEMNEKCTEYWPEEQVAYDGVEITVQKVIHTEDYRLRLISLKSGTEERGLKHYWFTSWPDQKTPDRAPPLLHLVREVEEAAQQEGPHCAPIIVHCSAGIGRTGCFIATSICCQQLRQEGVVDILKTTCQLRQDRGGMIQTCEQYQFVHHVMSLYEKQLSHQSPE

Below, 8 compounds whose answers are already recorded.
CNc1nc(-c2cccnc2)nc2c(C)c(-c3ccc(C#N)cc3)ccc12    < 1000 nM
Cc1cc(Cl)cc2c(Nc3cc(Cl)cc(Cl)c3)nc(-c3cnccn3)nc12    1000 to 10000 nM
Clc1cc(Cl)cc(Nc2nc(-c3ccnnc3)nc3cc(Cl)ccc23)c1    1000 to 10000 nM
Clc1ccc2c(Nc3ccc(Cl)c(Cl)c3)nc(-c3cnccn3)nc2c1    < 1000 nM
Cc1ccc(-c2ccc3c(Nc4ccc(F)c(Cl)c4)nc(-c4cccnc4)nc3c2)cc1    < 1000 nM
CNc1nc(-c2cccnc2)nc2c(C)cc(-c3ccccc3C#N)cc12    1000 to 10000 nM
Fc1ccc(-c2ccc3nc(-c4cccnc4)nc(Nc4ccc(F)c(Cl)c4)c3c2)c(F)c1    1000 to 10000 nM
COc1ccc2nc(-c3cccnc3)nc(Nc3ccccc3Br)c2c1    1000 to 10000 nM

# compound COc1ccccc1-c1ccc2c(Nc3ccc(F)c(Cl)c3)nc(-c3cccnc3)nc2c1 ; its IC50 = 1000 to 10000 nM
